Where do the numbers come from? From paper PMC4262413.

Tested on: P. auruginosa 10419
testSummary: microbe, parasite or virus in culture
Assay type: cell-based, Pseudomonas aeruginosa
Residues, ends and D or L forms follow the SMILES beside them.
For each of the compounds below, state its MIC.
Write it as a number; the unit µM goes unstated.

Specify reported MIC for the compound shown: CC[C@H](C)[C@H](NC(=O)[C@H](CCCCN)NC(=O)[C@H](CCCCN)NC(=O)[C@H](CC(C)C)NC(=O)[C@H](CCCNC(=N)N)NC(=O)[C@H](CCCCN)NC(=O)[C@H](CCCNC(=N)N)NC(=O)[C@@H](NC(=O)[C@H](CCCCN)NC(=O)[C@H](CCCCN)NC(=O)[C@H](CCCNC(=N)N)NC(=O)[C@H](CC(C)C)NC(=O)[C@H](CCCNC(=N)N)NC(=O)[C@H](CCCNC(=N)N)NC(=O)[C@H](Cc1ccccc1)NC(=O)[C@@H](N)CCCNC(=N)N)[C@@H](C)CC)C(N)=O [T9I] (H-RFRRLRKKIRKRLKKI-NH2)
256

Consider the compound CC[C@H](C)[C@H](NC(=O)[C@H](CCCCN)NC(=O)[C@H](CCCCN)NC(=O)[C@H](CC(C)C)NC(=O)[C@H](CCCNC(=N)N)NC(=O)[C@H](CCCCN)NC(=O)[C@H](CCCNC(=N)N)NC(=O)[C@H](Cc1ccccc1)NC(=O)[C@H](CCCCN)NC(=O)[C@H](CCCCN)NC(=O)[C@H](CCCNC(=N)N)NC(=O)[C@H](CC(C)C)NC(=O)[C@H](CCCNC(=N)N)NC(=O)[C@H](CCCNC(=N)N)NC(=O)[C@H](Cc1ccccc1)NC(=O)[C@@H](N)CCCNC(=N)N)C(N)=O [T9F] (H-RFRRLRKKFRKRLKKI-NH2) and give its recorded MIC.
256

###

Tested on: P. auruginosa 10419
testSummary: microbe, parasite or virus in culture
Format: cell-based, Pseudomonas aeruginosa
Residues, ends and D or L forms follow the SMILES beside them.
measurementName: MIC (µM)
Give just the number in µM; leave the unit off.

Provide one value: measured MIC of CC[C@H](C)[C@H](NC(=O)[C@H](CCCCN)NC(=O)[C@H](CCCCN)NC(=O)[C@H](CC(C)C)NC(=O)[C@H](CCCNC(=N)N)NC(=O)[C@H](CCCCN)NC(=O)[C@H](CCCNC(=N)N)NC(=O)[C@H](CCCCN)NC(=O)[C@H](CCCCN)NC(=O)[C@H](CCCCN)NC(=O)[C@H](CCCNC(=N)N)NC(=O)[C@H](CC(C)C)NC(=O)[C@H](CCCNC(=N)N)NC(=O)[C@H](CCCNC(=N)N)NC(=O)[C@H](Cc1ccccc1)NC(=O)[C@@H](N)CCCNC(=N)N)C(N)=O [T9K] (H-RFRRLRKKKRKRLKKI-NH2)
256
